- systemName: human Nav1.5 channels stably expressed in HEK 293 cells (Homo sapiens)
- Construct: expressed in transfected cells
- Sequence (Q14524 whole entry): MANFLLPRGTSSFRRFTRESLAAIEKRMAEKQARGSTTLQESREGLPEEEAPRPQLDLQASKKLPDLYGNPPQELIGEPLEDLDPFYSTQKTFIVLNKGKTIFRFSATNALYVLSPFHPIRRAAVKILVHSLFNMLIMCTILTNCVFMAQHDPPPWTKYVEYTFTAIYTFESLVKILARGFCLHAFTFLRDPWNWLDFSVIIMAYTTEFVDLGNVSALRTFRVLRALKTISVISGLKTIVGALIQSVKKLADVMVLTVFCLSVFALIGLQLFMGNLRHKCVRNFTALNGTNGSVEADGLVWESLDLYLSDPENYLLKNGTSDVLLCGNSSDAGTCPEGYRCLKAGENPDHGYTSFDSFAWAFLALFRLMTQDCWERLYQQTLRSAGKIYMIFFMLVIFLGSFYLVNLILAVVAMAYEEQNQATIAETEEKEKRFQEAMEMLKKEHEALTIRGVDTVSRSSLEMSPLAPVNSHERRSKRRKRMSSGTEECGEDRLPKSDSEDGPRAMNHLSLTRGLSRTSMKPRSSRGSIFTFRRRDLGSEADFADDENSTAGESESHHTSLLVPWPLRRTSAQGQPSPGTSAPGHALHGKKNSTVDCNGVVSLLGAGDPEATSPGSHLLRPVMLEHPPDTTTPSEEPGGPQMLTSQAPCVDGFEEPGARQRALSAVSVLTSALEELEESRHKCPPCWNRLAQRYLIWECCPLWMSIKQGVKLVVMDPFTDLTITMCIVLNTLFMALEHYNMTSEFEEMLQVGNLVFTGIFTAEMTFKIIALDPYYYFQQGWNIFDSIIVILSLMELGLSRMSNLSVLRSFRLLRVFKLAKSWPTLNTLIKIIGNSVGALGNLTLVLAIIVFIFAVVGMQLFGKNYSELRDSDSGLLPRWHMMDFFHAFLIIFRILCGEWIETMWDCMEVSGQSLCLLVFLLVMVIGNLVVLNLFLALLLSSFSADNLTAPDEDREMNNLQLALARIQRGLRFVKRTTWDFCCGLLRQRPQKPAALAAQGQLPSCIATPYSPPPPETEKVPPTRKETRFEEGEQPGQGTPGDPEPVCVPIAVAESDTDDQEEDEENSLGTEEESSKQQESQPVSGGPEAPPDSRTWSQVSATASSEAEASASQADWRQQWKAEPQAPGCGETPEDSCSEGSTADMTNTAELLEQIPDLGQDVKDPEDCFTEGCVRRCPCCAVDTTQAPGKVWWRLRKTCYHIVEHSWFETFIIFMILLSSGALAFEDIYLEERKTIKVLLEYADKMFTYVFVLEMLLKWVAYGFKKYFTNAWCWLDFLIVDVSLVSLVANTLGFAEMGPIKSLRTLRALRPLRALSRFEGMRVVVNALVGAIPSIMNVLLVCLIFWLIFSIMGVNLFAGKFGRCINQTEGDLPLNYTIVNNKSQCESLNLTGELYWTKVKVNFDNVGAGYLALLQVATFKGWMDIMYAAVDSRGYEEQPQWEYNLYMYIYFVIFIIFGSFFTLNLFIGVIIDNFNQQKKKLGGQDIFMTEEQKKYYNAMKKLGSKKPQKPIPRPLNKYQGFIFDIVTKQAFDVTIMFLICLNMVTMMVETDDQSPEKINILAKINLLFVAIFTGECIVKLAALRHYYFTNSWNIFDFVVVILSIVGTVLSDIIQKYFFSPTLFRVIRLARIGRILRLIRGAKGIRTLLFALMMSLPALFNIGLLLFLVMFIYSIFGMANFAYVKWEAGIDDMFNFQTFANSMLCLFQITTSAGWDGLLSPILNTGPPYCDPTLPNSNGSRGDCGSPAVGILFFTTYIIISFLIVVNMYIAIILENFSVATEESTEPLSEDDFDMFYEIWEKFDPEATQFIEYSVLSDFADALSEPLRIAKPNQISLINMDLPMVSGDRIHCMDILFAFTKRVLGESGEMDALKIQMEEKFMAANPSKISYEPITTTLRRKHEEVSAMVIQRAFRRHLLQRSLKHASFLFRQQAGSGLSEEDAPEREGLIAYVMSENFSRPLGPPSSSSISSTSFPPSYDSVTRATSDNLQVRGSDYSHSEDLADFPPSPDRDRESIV
- testSummary: PatchXpress 7000 automated patch-clamp, sodium current
- Format: cell-based
- experimentalConditions: selectivity over Nav1.5
The reader will find reported ratio of Nav 1.5:Nav 1.7 potency, determined by PatchXpress measurement values listed item by item below.
quantityName: ratio of Nav 1.5:Nav 1.7 potency, determined by PatchXpress measurement

compound: C[C@H](c1ccccc1C1=CCNCC1)n1c(=O)oc2cc(S(=O)(=O)Nc3ncns3)c(F)cc21
quantitativeResult: 296
//
compound: C[C@H](c1ccccc1CN(C)C)n1c(=O)oc2cc(S(=O)(=O)Nc3ncns3)c(F)cc21
quantitativeResult: 525
//
compound: C[C@H](c1cccc(-c2ccc(O)nc2)c1)n1c(=O)oc2cc(S(=O)(=O)Nc3ncns3)c(F)cc21
quantitativeResult: 181
//
compound: Cc1cccc2c1CCCC2n1c(=O)oc2cc(S(=O)(=O)Nc3ncns3)c(F)cc21 (stereo not shown)
quantitativeResult: 14

====

- systemName: human Nav1.7 channels stably expressed in HEK 293 cells (Homo sapiens, UniProt Q15858)
- Construct: expressed in transfected cells
- Sequence (Q15858 whole entry): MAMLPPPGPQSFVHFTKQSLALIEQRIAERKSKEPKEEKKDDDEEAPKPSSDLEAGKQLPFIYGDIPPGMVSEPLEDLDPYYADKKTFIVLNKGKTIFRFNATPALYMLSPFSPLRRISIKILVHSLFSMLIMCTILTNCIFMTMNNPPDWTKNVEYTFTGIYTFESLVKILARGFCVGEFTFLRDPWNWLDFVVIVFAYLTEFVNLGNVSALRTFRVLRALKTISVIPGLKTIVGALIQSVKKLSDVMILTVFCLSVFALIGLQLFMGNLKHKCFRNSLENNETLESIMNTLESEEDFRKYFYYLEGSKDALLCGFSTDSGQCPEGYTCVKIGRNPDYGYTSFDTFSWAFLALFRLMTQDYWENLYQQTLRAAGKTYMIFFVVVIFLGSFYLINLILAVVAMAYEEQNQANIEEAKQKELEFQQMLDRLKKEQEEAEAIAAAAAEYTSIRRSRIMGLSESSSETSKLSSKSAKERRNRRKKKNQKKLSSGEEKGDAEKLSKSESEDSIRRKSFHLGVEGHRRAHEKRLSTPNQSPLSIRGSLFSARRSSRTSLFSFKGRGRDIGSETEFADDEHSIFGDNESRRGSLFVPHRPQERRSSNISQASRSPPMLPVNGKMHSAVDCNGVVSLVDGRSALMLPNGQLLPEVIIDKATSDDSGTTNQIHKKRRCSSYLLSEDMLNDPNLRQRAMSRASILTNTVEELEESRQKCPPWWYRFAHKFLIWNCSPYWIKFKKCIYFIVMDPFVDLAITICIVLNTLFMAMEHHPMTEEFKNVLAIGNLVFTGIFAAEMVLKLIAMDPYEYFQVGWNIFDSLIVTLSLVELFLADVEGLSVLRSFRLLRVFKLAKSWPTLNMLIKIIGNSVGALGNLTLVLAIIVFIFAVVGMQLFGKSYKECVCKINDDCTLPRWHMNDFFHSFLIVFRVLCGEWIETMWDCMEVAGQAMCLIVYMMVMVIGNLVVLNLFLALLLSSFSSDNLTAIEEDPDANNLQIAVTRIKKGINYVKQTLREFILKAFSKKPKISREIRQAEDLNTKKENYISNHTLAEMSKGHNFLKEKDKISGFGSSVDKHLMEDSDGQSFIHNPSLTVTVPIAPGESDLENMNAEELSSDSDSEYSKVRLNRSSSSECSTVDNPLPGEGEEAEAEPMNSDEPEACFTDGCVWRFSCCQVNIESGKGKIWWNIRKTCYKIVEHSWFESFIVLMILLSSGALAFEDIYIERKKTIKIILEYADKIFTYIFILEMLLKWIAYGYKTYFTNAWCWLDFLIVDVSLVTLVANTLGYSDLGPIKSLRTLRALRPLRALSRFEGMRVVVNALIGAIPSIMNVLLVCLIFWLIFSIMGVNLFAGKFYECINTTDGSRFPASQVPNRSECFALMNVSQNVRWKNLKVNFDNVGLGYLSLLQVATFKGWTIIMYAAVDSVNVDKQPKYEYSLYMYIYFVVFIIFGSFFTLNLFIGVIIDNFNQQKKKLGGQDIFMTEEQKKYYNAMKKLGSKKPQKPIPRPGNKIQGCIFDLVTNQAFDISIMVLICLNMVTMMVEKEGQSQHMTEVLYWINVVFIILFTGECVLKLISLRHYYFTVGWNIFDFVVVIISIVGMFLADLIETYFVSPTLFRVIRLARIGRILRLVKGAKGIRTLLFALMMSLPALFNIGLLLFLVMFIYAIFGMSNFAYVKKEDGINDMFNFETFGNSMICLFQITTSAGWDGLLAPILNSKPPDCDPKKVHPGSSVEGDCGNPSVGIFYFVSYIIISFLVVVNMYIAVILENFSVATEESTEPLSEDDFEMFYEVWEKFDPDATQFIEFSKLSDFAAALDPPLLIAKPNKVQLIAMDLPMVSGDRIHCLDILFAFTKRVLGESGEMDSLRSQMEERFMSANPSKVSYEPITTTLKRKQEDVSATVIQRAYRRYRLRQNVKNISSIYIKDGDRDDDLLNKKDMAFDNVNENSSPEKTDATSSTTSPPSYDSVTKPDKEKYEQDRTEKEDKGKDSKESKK
- testSummary: PatchXpress 7000 automated patch-clamp, sodium current
- Assay type: cell-based
- experimentalConditions: 22° C., read-out: potency for the Nav 1.7 sodium ion channel (as measured by PatchXpress)
pIC50: −log10 of the molar value.
Property: pIC50; scope: individual molecules

molecule: O=c1oc2cc(S(=O)(=O)Nc3nccs3)c(F)cc2n1Cc1cccc(Br)c1
systemName: human Nav1.7 channels stably expressed in HEK 293 cells (Homo sapiens, UniProt Q15858)
pIC50: 6.79

molecule: C[C@H](c1ccccc1C#CCCO)n1c(=O)oc2cc(S(=O)(=O)Nc3ncns3)c(F)cc21
systemName: human Nav1.7 channels stably expressed in HEK 293 cells (Homo sapiens, UniProt Q15858)
pIC50: 6.83

molecule: C[C@H](c1cccc(-c2ccn(C)n2)c1)n1c(=O)oc2cc(S(=O)(=O)Nc3ncns3)c(F)cc21
systemName: human Nav1.7 channels stably expressed in HEK 293 cells (Homo sapiens, UniProt Q15858)
pIC50: 6.51

molecule: Cc1csc(NS(=O)(=O)c2ccc3c(c2)oc(=O)n3C(C)c2ccccc2)n1 (stereo not drawn)
systemName: human Nav1.7 channels stably expressed in HEK 293 cells (Homo sapiens, UniProt Q15858)
pIC50: 5.92

molecule: Cc1ccc2c(c1)C(n1c(=O)oc3cc(S(=O)(=O)Nc4nccs4)c(F)cc31)CCC2 (stereo not drawn)
systemName: human Nav1.7 channels stably expressed in HEK 293 cells (Homo sapiens, UniProt Q15858)
pIC50: 6.95

molecule: O=c1oc2cc(S(=O)(=O)Nc3nccs3)c(F)cc2n1Cc1cccc2c1CNCC2F (single isomer, unassigned) [Compound 43-28]
systemName: human Nav1.7 channels stably expressed in HEK 293 cells (Homo sapiens, UniProt Q15858)
pIC50: 6.92

molecule: C[C@H](c1ccccc1C#CC1CCCCN1)n1c(=O)oc2cc(S(=O)(=O)Nc3ncns3)c(F)cc21 (stereo partly drawn)
systemName: human Nav1.7 channels stably expressed in HEK 293 cells (Homo sapiens, UniProt Q15858)
pIC50: 7.89

molecule: C[C@H](c1cccc2cncn12)n1c(=O)oc2cc(S(=O)(=O)Nc3nccs3)c(F)cc21
systemName: human Nav1.7 channels stably expressed in HEK 293 cells (Homo sapiens, UniProt Q15858)
pIC50: 6.67

molecule: C[C@H](c1cccc2c1CNCC2)n1c(=O)oc2cc(S(=O)(=O)Nc3ncns3)ccc21
systemName: human Nav1.7 channels stably expressed in HEK 293 cells (Homo sapiens, UniProt Q15858)
pIC50: 7.59

molecule: Nc1cccc2c1CCCC2n1c(=O)oc2cc(S(=O)(=O)Nc3nccs3)c(F)cc21 (stereo not drawn)
systemName: human Nav1.7 channels stably expressed in HEK 293 cells (Homo sapiens, UniProt Q15858)
pIC50: 6.39

molecule: C[C@H](c1cccc2ccncc12)n1c(=O)oc2cc(S(=O)(=O)Nc3ncns3)ccc21
systemName: human Nav1.7 channels stably expressed in HEK 293 cells (Homo sapiens, UniProt Q15858)
pIC50: 7.40

molecule: O=c1oc2cc(S(=O)(=O)Nc3nccs3)c(F)cc2n1C1CCCc2cccnc21 (stereo not drawn)
systemName: human Nav1.7 channels stably expressed in HEK 293 cells (Homo sapiens, UniProt Q15858)
pIC50: 6.37

molecule: O=c1oc2cc(S(=O)(=O)Nc3ncns3)c(F)cc2n1Cc1cccc2c1CC(NCC(F)(F)F)CC2 (racemic)
systemName: human Nav1.7 channels stably expressed in HEK 293 cells (Homo sapiens, UniProt Q15858)
pIC50: 6.69

molecule: O=c1oc2cc(S(=O)(=O)Nc3ncns3)ccc2n1Cc1cccc(Cl)c1
systemName: human Nav1.7 channels stably expressed in HEK 293 cells (Homo sapiens, UniProt Q15858)
pIC50: 6.44

molecule: Nc1ccc2c(c1)C(n1c(=O)oc3cc(S(=O)(=O)Nc4nccs4)c(F)cc31)CCC2 (stereo not drawn) [Compound 43-14]
systemName: human Nav1.7 channels stably expressed in HEK 293 cells (Homo sapiens, UniProt Q15858)
pIC50: 6.85
